Biological target: T1, PACAP38 (human, not fully specified)
T1 construct: The background says natural PACAP is alpha-amidated
T1 peptide: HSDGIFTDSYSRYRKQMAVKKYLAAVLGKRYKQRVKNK
Assay: SPR (Biacore), 37 C, antibody captured via anti-human Fc, peptide analyte
Quick reference: Kd of the listed items.
READOUT_LABEL: Kd (nM)

BINDER: 605C (antibody, V domains shown) VH: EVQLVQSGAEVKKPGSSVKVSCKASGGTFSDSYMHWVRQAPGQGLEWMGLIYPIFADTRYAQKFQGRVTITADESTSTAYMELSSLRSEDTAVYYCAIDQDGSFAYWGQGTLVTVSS VL: DIVMTQSPDSLAVSLGERATINCKSSQSLLDADGKTYLNWLQQKPGQPPKRLIYWASTRESGVPDRFSGSGSGTDFTLTISSLQAEDVAVYYCWQGTWFDLTFGGGTKVEIK
READOUT_LABEL: Kd
READOUT_NUMBER: 0.017
--
BINDER: 919A (antibody, V domains shown, Humanized anti-PACAP variant) VH: EVQLVQSGAEVKKPGSSVKVSCKASGGTFSDSYMHWVRQAPGQGLEWMGLIYPIFADTRYAQKFQGRVTITADESTSTAYMELSSLRSEDTAVYYCAIDYDGSFAYWGQGTLVTVSS VL: DIVMTQSPDSLAVSLGERATINCKSSQSLLDSDGKTYLNWLQQKPGQPPKRLIYLVSTRESGVPDRFSGSGSGTDFTLTISSLQAEDVAVYYCWQGTHFPLTFGGGTKVEIK
READOUT_LABEL: Kd
READOUT_NUMBER: 0.0866
--
BINDER: 608C (antibody, V domains shown) VH: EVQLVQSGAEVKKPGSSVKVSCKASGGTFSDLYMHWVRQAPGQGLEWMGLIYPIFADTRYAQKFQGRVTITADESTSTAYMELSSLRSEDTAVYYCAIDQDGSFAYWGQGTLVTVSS VL: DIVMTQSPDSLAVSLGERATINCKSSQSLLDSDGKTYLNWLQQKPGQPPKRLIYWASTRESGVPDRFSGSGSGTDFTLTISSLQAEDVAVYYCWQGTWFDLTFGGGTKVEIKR
READOUT_LABEL: Kd
READOUT_NUMBER: 0.0284
--
BINDER: 519C (antibody, V domains shown, LC S(27E), G29, L50, V51, K53T, L54R, D55E, H93W, P95D) VH: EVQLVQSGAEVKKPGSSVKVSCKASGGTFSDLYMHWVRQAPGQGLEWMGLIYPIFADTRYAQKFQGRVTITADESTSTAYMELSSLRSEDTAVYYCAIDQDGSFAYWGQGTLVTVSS VL: DIVMTQSPDSLAVSLGERATINCKSSQSLLDSDGKTYLNWLQQKPGQPPKRLIYLVSTRESGVPDRFSGSGSGTDFTLTISSLQAEDVAVYYCWQGTWFDLTFGGGTKVEIK
READOUT_LABEL: Kd
READOUT_NUMBER: 0.0218
--
BINDER: 917B (antibody, V domains shown, Humanized anti-PACAP variant) VH: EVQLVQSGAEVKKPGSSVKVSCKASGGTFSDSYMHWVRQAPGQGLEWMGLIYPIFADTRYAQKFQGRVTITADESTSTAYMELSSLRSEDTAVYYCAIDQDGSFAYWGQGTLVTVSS VL: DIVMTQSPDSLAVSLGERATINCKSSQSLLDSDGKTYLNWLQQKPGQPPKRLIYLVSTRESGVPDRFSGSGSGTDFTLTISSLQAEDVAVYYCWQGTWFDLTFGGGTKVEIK
READOUT_LABEL: Kd
READOUT_NUMBER: 0.00969
